These measurements were taken from ChEMBL document CHEMBL3797131.

MEASUREMENT PROTOCOL: Plasma concentration in Balb/c mouse at 10 mg/kg to 100 mg/kg, po after 4 hrs
Assay type: ADME, organism-based
MEASURE NAME: concentration at 4 h (nM)
Quick note: give the figure in nM, leave out the unit.

# compound "C[C@H](c1ccccc1)N1c2cc(-n3c(=O)[nH]c4ncccc43)ccc2C(=O)NC1(C)C" ; its concentration at 4 h = 2000

* * *

MEASUREMENT PROTOCOL: Oral bioavailability in Balb/c mouse at 1 mg/kg
Type: ADME, organism-based
STUDY CONDITIONS: in vivo
bioavailability values for the molecules below.
# unit: % | format: bare number

- COMPOUND STRUCTURE STRING: "CC1(C)NC(=O)c2ccc(-n3c(=O)[nH]c4ncccc43)cc2N1Cc1ccccc1"
  UNITS: "%"
  bioavailability: 12

Short answer for "C[C@@H](c1ccccc1)N1c2cc(-n3c(=O)[nH]c4ncccc43)ccc2C(=O)NC1(C)C" : bioavailability was 7

Input "C[C@H](c1ccccc1)N1c2cc(-n3c(=O)[nH]c4ncccc43)ccc2C(=O)NC1(C)C" . Output bioavailability: 28

* * *

MEASUREMENT PROTOCOL: AUC in Balb/c mouse at 1 mg/kg, po
Assay type: ADME, organism-based
STUDY CONDITIONS: in vivo
Below, each entry is listed with its recorded AUC.
Returns: string containing the number followed by the unit.

Some entries whose results are on file:
- COMPOUND STRUCTURE STRING: "C[C@@H](c1ccccc1)N1c2cc(-n3c(=O)[nH]c4ncccc43)ccc2C(=O)NC1(C)C"
  AUC: "11 ng·h/mL"
- COMPOUND STRUCTURE STRING: "CC1(C)NC(=O)c2ccc(-n3c(=O)[nH]c4ncccc43)cc2N1Cc1ccccc1"
  AUC: "16 ng·h/mL"

Query compound follows.
The compound identified as "C[C@H](c1ccccc1)N1c2cc(-n3c(=O)[nH]c4ncccc43)ccc2C(=O)NC1(C)C" registered its AUC at 172 ng·h/mL
